Field: log10 of EC50. Provide a value for each of the compounds that follow.
# SYSTEM_NAME: human GPR120 (Homo sapiens, UniProt Q5NUL3)
# Construct: expressed in transfected cells; host or cells: HEK293T, transient transfection with PEI
# Sequence (Q5NUL3 whole entry): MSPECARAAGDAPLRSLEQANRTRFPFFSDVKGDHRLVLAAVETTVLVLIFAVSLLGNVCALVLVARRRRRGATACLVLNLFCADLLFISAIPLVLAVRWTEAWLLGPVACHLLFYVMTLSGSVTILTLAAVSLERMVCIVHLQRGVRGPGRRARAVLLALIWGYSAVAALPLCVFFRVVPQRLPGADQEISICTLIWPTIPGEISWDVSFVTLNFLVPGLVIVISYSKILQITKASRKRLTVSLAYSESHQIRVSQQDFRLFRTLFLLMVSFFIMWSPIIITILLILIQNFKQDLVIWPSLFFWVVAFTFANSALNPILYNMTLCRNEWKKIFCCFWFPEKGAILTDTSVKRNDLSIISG
# ASSAY_OVERVIEW: Human GPR120-β Arrestin 2 BRET agonist assay
# Format: cell-based
# ASSAY_CONDITIONS: HEK293T cells transiently co-expressing hGPR120-eYFP and β-arrestin 2-RLuc; BRET normalised to DMSO (0%) and TUG-891 (100%); read-out: hGPR120 pEC50 (converted)
Please keep in mind that the values are log10 of EC50 expressed in nM.

Examples from the recorded data:
compound=O=C(O)CCc1ccc2c(c1)CCN(c1cccc(OC3CCC3)c1)C2 test_readout="log10 of EC50" test_value=2.20
compound=O=C(O)CCc1ccc2c(c1)CCN(c1cccc(OC(F)(F)F)n1)C2 test_readout="log10 of EC50" test_value=2.50
compound="O=C(O)C1CC1c1ccc2c(c1)CCN(c1cc(OC3CCC3)ccc1F)C2 (racemic) [Compound 34]" test_readout="log10 of EC50" test_value=2.20
compound=O=C(O)CCc1ccc2c(c1)CCN(c1cc(Cl)cc(OC3CCC3)c1)C2 test_readout="log10 of EC50" test_value=1.30

# batch size: 4; output log10 of EC50 per entry
1. O=C(O)CCc1cc(F)c2c(c1)CCN(c1cccc(Oc3ccccc3)c1)C2
2. O=C(O)CCc1ccc2c(c1)CCN(c1cc(OC3CC3)ccc1F)CC2
3. O=C(O)C1CC1c1ccc2c(c1)CCN(c1cc(OC3CCC3)cc(F)c1F)C2 (stereo not shown)
4. O=C(O)CCc1ccc2c(c1)CCN(c1cccc(Oc3ccccc3)c1)C2

1.50
2.20
2.00
1.40

# batch size: 6; output log10 of EC50 per entry
1. N#Cc1ccc(OC(F)(F)F)cc1N1CCc2cc(CCC(=O)O)ccc2C1
2. O=C(O)CCc1ccc2c(c1)CCN(c1ccccc1Oc1ccccc1)C2
3. O=C(O)C1CC1c1ccc2c(c1)CCN(c1cc(OC(F)(F)F)ccc1F)CC2 (stereo not shown)
4. CC1(C)Cc2cc(Cl)cc(N3CCc4cc(CCC(=O)O)ccc4C3)c2O1
5. O=C(O)CCc1ccc2c(c1)CCN(c1cc(OC3CCC3)cc(F)c1F)C2
6. O=C(O)C1CC1c1ccc2c(c1)CCN(c1nc(OC3CCC3)ccc1F)C2 (stereo not shown) [Compound 37]

[1.90, 2.20, 2.10, 2.80, 1.00, 1.60]
